# Test system: 5-MDMT induced symptoms
# PROTOCOL_SUMMARY: Anti-5HT activity: inhibition of 5-methoxy-N,N-dimethyltryptamine induced symptoms in mice
# Assay type: in vivo
# REPORTED_CONDITIONS: po; Mouse, p.o., pretreated 1 h before 10 mg/kg ip 5-methoxy-N,N-dimethyltryptamine; dose inhibiting symptoms by 50%
Answer each item with its documented log10 of ED50.
Record value = log10 of ED50 given in mg/kg.

Prompt: Tell me measured log10 of ED50 for COc1cc(NC(C)=O)c(Cl)cc1C(=O)N[C@@H]1C[C@H]2CC[C@@H](C1)N2CC(C)(C)C please.
Completion: 0.38

Prompt: Tell me measured log10 of ED50 for COc1cc(N)c(Cl)cc1C(=O)NC1CC2CCC(C1)N2CC(C)(C)C (centres unmarked) please.
Completion: -0.70

Prompt: Tell me measured log10 of ED50 for COc1cc(N)c(Cl)cc1C(=O)NC1CC2CCC(C1)N2CCC(C)C (centres unmarked) please.
Completion: 0.90

Prompt: Tell me measured log10 of ED50 for COc1cc(N)c(Cl)cc1C(=O)NC1CC2CCCC(C1)N2CC(C)(C)C (centres unmarked) please.
Completion: 0.66

Prompt: Tell me measured log10 of ED50 for COc1cc(N)c(Br)cc1C(=O)NC1CC2CCC(C1)N2CC(C)(C)C (centres unmarked) please.
Completion: 0.60

These data points were gathered from patent EP0099194A2.
